The measurements presented in this section are drawn from ChEMBL document CHEMBL1123400.

Tested on: B16
Test: In vitro inhibitory effect on growth of B16 melanoma cells
Format: functional
Settings: Mus musculus, read-out: ID50 (the source's name)
pIC50 for assorted molecules
The scale used: pIC50 is minus the common logarithm of the concentration in molar units.

Illustrative cases are given below, each with its answer.
COP(=O)(OC)OC[C@H]1O[C@@H](C2=NNC(C(N)=O)C2=O)[C@H](O)[C@@H]1O (stereo partly drawn) = 5.64
NC(=O)C1NN=C([C@@H]2O[C@H](CO)[C@@H](O)[C@H]2O)C1=O (stereo partly drawn) = 7.20

Entry NC(=O)c1[nH]nc(C2OC3COP(=O)(O)O[C@@H]3[C@@H]2O)c1O (stereo partly drawn) ; pIC50 = 5.20

Entry CCOP(=O)(O)OC[C@H]1O[C@@H](C2=NNC(C(N)=O)C2=O)[C@H](O)[C@@H]1O (stereo partly drawn) ; pIC50 = 6.64

Entry N#CC1NN=C([C@@H]2O[C@H](CO)[C@@H](O)[C@H]2O)C1=O (stereo partly drawn) ; pIC50 = 4.14

Entry NC(=O)c1[nH]nc(C2O[C@H](COP(=O)(O)O)[C@H](O)[C@@H]2O)c1O (stereo partly drawn) ; pIC50 = 6.62

---

System: P388
Experiment: In vitro inhibitory effect on growth of P388 leukemia cell
Type: functional
Conditions: Mus musculus, read-out: ID50 (the source's name)
pIC50: −log10 of the molar value.
Quantity Name: pIC50

Entry COc1c([C@@H]2O[C@H](CO)[C@@H](O)[C@H]2O)nn(C)c1C(N)=O ; pIC50 = < 4.00

---

Tested on: Lewis lung carcinoma cell line
Assay: In vitro inhibitory effect on growth of lewis lung carcinoma cells
Assay type: functional
Conditions: Mus musculus, read-out: ID50 (the source's name)
pIC50 for assorted compounds
The scale used: pIC50 is minus the common logarithm of the concentration in molar units.

NC(=O)c1[nH]nc(C2O[C@H](COP(=O)(O)O)[C@H](O)[C@@H]2O)c1O (stereo partly drawn) = 8.30

Now, please, on to the next compound.
Entry N=C(N)C1NN=C([C@@H]2O[C@H](CO)[C@@H](O)[C@H]2O)C1=O (stereo partly drawn) ; pIC50 = 4.05

---

Test system: P388
Assay: In vitro inhibitory effect on growth of P388 leukemia cells.
Assay type: functional
Settings: Mus musculus, read-out: ID50 (the source's name)
Quantity Name: pIC50
The scale used: pIC50 is minus the common logarithm of the concentration in molar units.

Entry NC(=O)c1[nH]nc(C2O[C@@H](COP(=O)(O)OP(=O)(O)OC[C@H]3OC(n4cnc5c(N)ncnc54)[C@H](O)[C@@H]3O)[C@H](O)[C@@H]2O)c1O (stereo partly specified) ; pIC50 = 8.06
